Quick reference for Ki among some compounds
Target: purified catalytic domain of recombinant human TACE (rhTACEc) (Homo sapiens, UniProt P78536, N452Q/S266A)
Construct: 6xHis (C); made in house; host or cells: baculovirus/Hi5 insect cells
Sequence (P78536 215-477 S266A/N452Q): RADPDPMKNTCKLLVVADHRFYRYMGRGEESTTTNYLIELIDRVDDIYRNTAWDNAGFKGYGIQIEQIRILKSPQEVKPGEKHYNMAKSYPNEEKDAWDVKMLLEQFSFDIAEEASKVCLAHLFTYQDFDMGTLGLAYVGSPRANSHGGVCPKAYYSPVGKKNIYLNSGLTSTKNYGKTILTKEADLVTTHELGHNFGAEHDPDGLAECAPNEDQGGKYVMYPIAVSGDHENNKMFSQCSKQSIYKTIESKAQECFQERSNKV
Assay: TACE kinetic assay: cleavage of internally quenched peptide substrate TNF-FRET 2 (Ki)
Format: biochemical
Conditions: TNF-FRET 2 substrate, read-out: Ki
Dear colleague, please send the value followed by its unit.

Recorded results for 3 compounds are shown here.
compound="COc1ccc2c(c1)C(=O)N(C[C@@]1(c3cc4cnc(C)nc4o3)NC(=O)NC1=O)C2 [Compound 2309]" result="0.594 nM"
compound="COc1ccc2c(c1F)C(=O)N(C[C@@]1(c3cc4c(C)nccc4o3)NC(=O)NC1=O)C2 [Compound 2204]" result="0.34 nM"
compound="COc1ccc2c(c1)C(=O)N(C[C@@]1(c3cc4nc(C(=O)NCCN(C)C)ccc4o3)NC(=O)NC1=O)C2 [Compound 1927]" result="0.87 nM"

Per the records, this compound ( COc1ccc2c(c1)C(=O)N(C[C@@]1(c3cc4c(O)nccc4o3)NC(=O)NC1=O)C2 [Compound 2256] ) has Ki equal to 0.231 nM

Per the records, this compound ( COc1ccc2c(c1Br)C(=O)N(C[C@@]1(c3cc4ncccc4o3)NC(=O)NC1=O)C2 [Compound 1738] ) has Ki equal to 1.4 nM

Per the records, this compound ( COc1ccc2c(c1)C(=O)N(C[C@@]1(c3cc4cc(C(=O)NCCN(C)CCNS(C)(=O)=O)c(F)cc4o3)NC(=O)NC1=O)C2 [Compound 1281] ) has Ki equal to 0.83 nM

Per the records, this compound ( COc1cc2c(cc1OC)C(=O)N(C[C@@]1(c3cc4cnccc4o3)NC(=O)NC1=O)C2 [Compound 200] ) has Ki equal to 7.23 nM
